- Test system: LNCaP cells
- ASSAY_PROCEDURE: Growth inhibition assay, LNCaP
- Type: cell-based
- RUN_CONDITIONS: Homo sapiens, 48 h, 48h treatment, cell count normalized to DMSO
REPORTED_ENDPOINT: EC50

Prompt: Hi! What's the reported EC50 for "CC(C)(C)c1ccc(S(=O)(=O)Nc2ccc(O)c(-c3c(O)ccc4ccccc34)c2)cc1" on LNCaP cells?
Completion: > 10 µM

###

Would you kindly list IC50 for each of these compounds?
- TARGET_DESC: B.ENTPD5 (human ENTPD5 44–428) (Homo sapiens, UniProt O75356)
- Sequence (O75356 44-428): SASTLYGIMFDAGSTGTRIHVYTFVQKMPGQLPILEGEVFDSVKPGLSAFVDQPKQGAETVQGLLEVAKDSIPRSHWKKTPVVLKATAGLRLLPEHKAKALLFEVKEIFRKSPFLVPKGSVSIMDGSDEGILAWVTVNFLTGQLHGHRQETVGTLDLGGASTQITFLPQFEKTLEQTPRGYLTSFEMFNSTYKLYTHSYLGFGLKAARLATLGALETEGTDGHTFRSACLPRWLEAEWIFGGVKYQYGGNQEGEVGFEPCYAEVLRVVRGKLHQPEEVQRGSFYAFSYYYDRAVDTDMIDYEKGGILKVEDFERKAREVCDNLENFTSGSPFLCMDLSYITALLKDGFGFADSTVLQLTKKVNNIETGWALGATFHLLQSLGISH
Please give a number only; it is taken to be in µM.

Prompt: Give the measured IC50 of "O=S(=O)(Nc1ccc(O)c(-c2c(O)ccc3ccccc23)c1)c1ccc(Cl)cc1" .
Completion: 6.7

Prompt: Continue with "Cc1ccc(S(=O)(=O)Nc2ccc(O)c(-c3c(O)ccc4ccccc34)c2)cc1"
Completion: 7.1

Prompt: Continue with "Cc1cc(C)c(C)c(S(=O)(=O)Nc2ccc(O)c(-c3c(O)ccc4ccccc34)c2)c1C"
Completion: 3.7

###

Would you kindly list inhibition at 20 µM for each of these compounds?
- TARGET_DESC: B.ENTPD5 (human ENTPD5 44–428) (Homo sapiens)
- Construct: bacterial codon-optimized human ENTPD5 44–428 (B.ENTPD5); His8 (C); made in house; host or cells: E. coli C41(DE3)
- ASSAY_PROCEDURE: coupled enzyme (ENTPD5/UMPK/luciferase) HTS assay
- Type: biochemical
- RUN_CONDITIONS: HTS, 20 μM compound, duplicate, read-out: Percent ENTPD5 inhibition
Please give a number only; it is taken to be in %.

Prompt: Give the measured inhibition at 20 µM of "Cc1cc(C)c(C)c(S(=O)(=O)Nc2ccc(O)c(-c3c(O)ccc4ccccc34)c2)c1C" .
Completion: 48

Prompt: Continue with CCC(=O)N1c2ccccc2C(N(C(=O)c2ccccc2)c2ccccc2)CC1C (stereo not shown)
Completion: 47

Prompt: Continue with O=C1NC(c2ccccc2OCc2ccccc2)Nc2ccccc21 (stereo not shown)
Completion: 28

Prompt: Continue with "O=S(=O)(Nc1ccc(O)c(-c2c(O)ccc3ccccc23)c1)c1ccc(Cl)cc1"
Completion: 35
